test: Cytotoxic activity against NIH-3T3; type: cell-based; conditions: NIH-3T3 fibroblast cells; mouse fibroblasts cell line; 0.1–50 µM analyzed twice in duplicates; read-out: IC50, cytotoxic activity, NIH-3T3
Could you please report measured pIC50 for the items listed next?
To interpret pIC50, take it as minus log10 of a concentration measured in moles per litre.

[in] Could you share which pIC50 value was measured for CC1CCC2C(C)(C)C(O)CCC2(C)C12Cc1c(O)cc3c(c1O2)CN(C1OCc2cc(O)c4c(c21)OC1(C4)C(C)CCC2C(C)(C)C(O)CCC21C)C3=O (stereo not drawn) [Compound 2, stachyin B] ?
[out] 4.89

[in] How about CC(C)=CCC/C(C)=C/CC/C(C)=C/Cc1c(O)cc(C)c(C=O)c1O [Compound 13, ilicicolin B] ?
[out] 4.52
